Entries and their IC50, HIV-1 NL4.3 (X4), U87
test.system: CXCR4 and CD4 co-expressed on cells (MOLM-13, THP-1, MT-4, PBMC; Jurkat CD4 low) (human, UniProt P61073 1-352; P01730 26-458)
Sequence (P61073 whole entry, chain 1 of 2, other chains not shown): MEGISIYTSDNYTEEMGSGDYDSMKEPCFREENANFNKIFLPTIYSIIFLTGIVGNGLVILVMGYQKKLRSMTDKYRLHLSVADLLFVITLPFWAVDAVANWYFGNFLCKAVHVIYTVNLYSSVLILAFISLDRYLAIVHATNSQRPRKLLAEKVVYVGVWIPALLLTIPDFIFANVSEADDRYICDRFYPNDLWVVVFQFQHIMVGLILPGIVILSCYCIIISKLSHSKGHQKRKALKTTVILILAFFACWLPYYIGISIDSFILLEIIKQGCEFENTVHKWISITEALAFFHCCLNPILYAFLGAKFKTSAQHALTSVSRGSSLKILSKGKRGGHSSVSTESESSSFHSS
assay: cell-based or functional assay

query: What value of measured IC50, HIV-1 NL4.3 (X4), U87 is listed for 03F11-35GS-281F12 (bispecific antibody, also called CD4#8-35GS-CXCR4#2; CD4#8-CXCR4#2) EVQLVESGGGSVQPGGSLTLSCGTSGRTFNVMGWFRQAPGKEREFVAAVRWSSTGIYYTQYADSVKSRFTISRDNAKNTVYLEMNSLKPEDTAVYYCAADTYNSNPARWDGYDFRGQGTQVTVSSGGGGSGGGGSGGGGSGGGGSGGGGSGGGGSGGGGSEVQLVESGGGLVQAGDSLRLSCAASGRAFSRYAMGWFRQAPGKEREFVAAIGWGPSKTNYADSVKGRFTISRDNAKNTVYLQMNTLKPEDTAVYSCAAKFVNTDSTWSRSEMYTYWGQGTQVTVSS ?
result: > 3.33 µM

query: Requested read-out: IC50, HIV-1 NL4.3 (X4), U87. Entry: 03F11-25GS-281F12 (bispecific antibody) EVQLVESGGGSVQPGGSLTLSCGTSGRTFNVMGWFRQAPGKEREFVAAVRWSSTGIYYTQYADSVKSRFTISRDNAKNTVYLEMNSLKPEDTAVYYCAADTYNSNPARWDGYDFRGQGTQVTVSSGGGGSGGGGSGGGGSGGGGSGGGGSEVQLVESGGGLVQAGDSLRLSCAASGRAFSRYAMGWFRQAPGKEREFVAAIGWGPSKTNYADSVKGRFTISRDNAKNTVYLQMNTLKPEDTAVYSCAAKFVNTDSTWSRSEMYTYWGQGTQVTVSS
result: > 3.33 µM
